B1: CPEB3 Ribozyme (parent)
chain: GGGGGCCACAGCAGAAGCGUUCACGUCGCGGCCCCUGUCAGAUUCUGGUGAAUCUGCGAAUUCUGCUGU

variants of: B1; assay: self-cleavage, relative activity (ratio to wild type); higher = more cleavage; co-transcriptional
OBSERVED PROPERTY: self-cleavage
Respond numerically, and do not add a unit to the figure.

Request: self-cleavage for GGGGGCCACAGCAGAAGCGUUCACGUCGCGGCCCCUGUCAGAUUCUGGUGAAUCUGCGAAUACUGUUGU [U62A C66U] ?
Result: 0.737

Request: self-cleavage for GGGGGCCACAGCAGUAGCGUUCACGUCGCGGCCCCUGUCAGAUUCUGGUGAAUCUGCGAAAUCUGCUGU [A15U U61A] ?
Result: 0.931

Request: self-cleavage for GGGAGCCACUGCAGAAGCGUUCACGUCGCGGCCCCUGUCAGAUUCUGGUGAAUCUGCGAAUUCUGCUGU [G4A A10U] ?
Result: 0.941

Request: self-cleavage for GGGGGCCACACCAGAAGCUUUCACGUCGCGGCCCCUGUCAGAUUCUGGUGAAUCUGCGAAUUCUGCUGU [G11C G19U] ?
Result: 0.158

Request: self-cleavage for GGGGGCCACAGCAGAAGCGUUCACGUAGCGGCCCCUGUCAGAUUCCGGUGAAUCUGCGAAUUCUGCUGU [C27A U46C] ?
Result: 0.621

Request: self-cleavage for GGGGGCCACAGCAGAAGCGUUCACGUCACGGCCCCUGUCAGAUUCUGGUGAAUCAGCGAAUUCUGCUGU [G28A U55A] ?
Result: 0.169

Request: self-cleavage for GGCGGCCACAGCAGAAGCGUUCACGUCGCGGCCCCUGUCAGAUUCUGGUGAAUAUGCGAAUUCUGCUGU [G3C C54A] ?
Result: 0.0635

Request: self-cleavage for GGGGGCCACAGCAGAAGCCUUCACGUCGCGGCCCCUGACAGAUUCUGGUGAAUCUGCGAAUUCUGCUGU [G19C U38A] ?
Result: 0.218

Request: self-cleavage for AGGGGCCACAGCAGAAGCGUUCACGUCACGGCCCCUGUCAGAUUCUGGUGAAUCUGCGAAUUCUGCUGU [G1A G28A] ?
Result: 0.0534

Request: self-cleavage for GGGGGCCACAGCAGAAGCGUUCACGUCGCGUCCUCUGUCAGAUUCUGGUGAAUCUGCGAAUUCUGCUGU [G31U C34U] ?
Result: 0.363

Request: self-cleavage for GGGGGCCACAGCAGAAGCGUUCACGUCGCGGCCCCUGUCUGAUUCUGGUGAAUCUGCAAAUUCUGCUGU [A40U G58A] ?
Result: 0.797

src = the RNAGym collection of RNA variant scans (doi:10.7554/elife.80360)
